molecular target: UniProt:Q12809; assay: Inhibition of human ERG expressed in CHO cells at 1 uM incubated for 7 to 10 mins by automated whole-cell patch clamp recordings relative to control; settings: CHO cells expressing human ERG
parameter-measured: inhibition at 1 µM (%)
Report as a plain number; the unit % is understood.

Find the recorded inhibition at 1 µM belonging to CC(=O)N[C@]12CCC(=O)N[C@@]1(C)CC[C@@H]1c3ccc(OCCCN4CCC[C@H]4C)cc3CC[C@H]12 and report it.
3

----------
experiment: In vivo antagonist activity at Histamine H3 receptor in Wistar rat assessed as reduction in imetit-induced water intake pretreated with compound for 30 mins followed by imetit administration and measured after 30 mins by dipsogenia test; format: functional; conditions: 1 h, time 60 min
Measured ED50, listed per entry for reference.
Report only the number, with the unit mg/kg understood.

# count of solved cases: 5
ED50 lookup needed for C[C@@H]1CCCN1CCCOc1ccc2c(c1)CC[C@@H]1[C@@H]2CC[C@@]2(C)[C@H]1CCC(=O)N2C , thanks.
0.4

What ED50 value was documented for this compound, C[C@@H]1CCCN1CCCOc1ccc2c(c1)CC[C@H]1[C@@H]3[C@H](C#N)CC(=O)N[C@@]3(C)CC[C@H]21 ?
3.6

Given the entry C[C@@H]1CCCN1CCCOc1ccc2c(c1)CC[C@@H]1[C@@H]2CC[C@@]2(C)[C@@H]1CCC(=O)N2C , report its measured ED50.
0.23

Requested read-out: ED50. Entry: C[C@@H]1CC(=O)N[C@@]2(C)CC[C@@H]3c4ccc(OCCCN5CCC[C@H]5C)cc4CC[C@H]3[C@H]12
1.3

I am curious: what ED50 value has been reported for C[C@@H]1CC(=O)N(C)[C@@]2(C)CC[C@@H]3c4ccc(OCCCN5CCC[C@H]5C)cc4CC[C@H]3[C@H]12 ?
0.48

---
Endpoint output: ED50 of C[C@@H]1CCCN1CCCOc1ccc2c(c1)CC[C@H]1C3=CCC(=O)N(C)[C@@]3(C)CC[C@H]21 . Value?
0.22

What value of measured ED50 is listed for C[C@@H]1C[C@H]2[C@@H]3CCc4cc(OCCCN5CCC[C@H]5C)ccc4[C@H]3CC[C@]2(C)NC1=O ?
0.86

----------
target: Voltage-gated inwardly rectifying potassium channel KCNH2 (Homo sapiens, UniProt Q12809); assay: Inhibition of human ERG expressed in CHO cells incubated for 7 to 10 mins by automated whole-cell patch clamp recordings
Sequence (Q12809 whole entry): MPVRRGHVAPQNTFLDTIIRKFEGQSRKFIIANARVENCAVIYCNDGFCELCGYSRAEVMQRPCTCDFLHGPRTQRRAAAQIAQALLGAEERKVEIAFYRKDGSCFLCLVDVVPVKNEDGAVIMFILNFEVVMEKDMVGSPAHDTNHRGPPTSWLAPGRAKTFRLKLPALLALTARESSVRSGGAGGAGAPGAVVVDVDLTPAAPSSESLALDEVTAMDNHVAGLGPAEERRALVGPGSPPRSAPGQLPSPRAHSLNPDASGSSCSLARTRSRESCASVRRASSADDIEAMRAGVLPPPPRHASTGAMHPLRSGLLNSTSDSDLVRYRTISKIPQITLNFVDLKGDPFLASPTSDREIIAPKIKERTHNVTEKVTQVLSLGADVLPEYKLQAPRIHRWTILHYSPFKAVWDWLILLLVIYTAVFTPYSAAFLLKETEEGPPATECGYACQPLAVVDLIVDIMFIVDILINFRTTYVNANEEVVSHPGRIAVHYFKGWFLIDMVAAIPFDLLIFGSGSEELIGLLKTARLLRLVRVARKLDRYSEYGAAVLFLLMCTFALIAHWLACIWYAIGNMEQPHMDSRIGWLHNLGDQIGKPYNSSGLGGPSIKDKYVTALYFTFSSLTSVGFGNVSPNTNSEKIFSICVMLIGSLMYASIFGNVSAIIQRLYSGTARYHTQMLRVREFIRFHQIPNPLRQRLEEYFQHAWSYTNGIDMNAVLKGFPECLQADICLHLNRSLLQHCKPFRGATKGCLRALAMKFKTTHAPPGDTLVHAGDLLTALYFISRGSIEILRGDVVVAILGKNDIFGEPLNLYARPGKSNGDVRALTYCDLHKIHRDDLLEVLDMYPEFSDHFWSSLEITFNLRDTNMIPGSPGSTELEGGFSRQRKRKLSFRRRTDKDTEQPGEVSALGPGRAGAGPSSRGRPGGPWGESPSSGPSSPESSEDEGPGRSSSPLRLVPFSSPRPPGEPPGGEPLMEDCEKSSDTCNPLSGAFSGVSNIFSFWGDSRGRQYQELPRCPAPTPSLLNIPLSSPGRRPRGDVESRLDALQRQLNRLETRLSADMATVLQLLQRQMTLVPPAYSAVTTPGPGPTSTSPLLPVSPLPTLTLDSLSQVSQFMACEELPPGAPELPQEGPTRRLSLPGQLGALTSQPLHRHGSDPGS
parameter-measured: pIC50
The read-out pIC50 is expressed as -log10 of concentration in moles per litre.

Known results for compounds:
Fill in the blank: the reported pIC50 of C[C@@H]1C[C@@H]2[C@@H]3CCc4cc(OCCCN5CCC[C@H]5C)ccc4[C@H]3CC[C@]2(C)N(C)C1=O is ____.
5.57

Sample C[C@@H]1CCCN1CCCOc1ccc2c(c1)CC[C@H]1[C@@H]3[C@@H]4C[C@@H]4C(=O)N[C@@]3(C)CC[C@H]21 — what was its pIC50?
4.93

***
Consider the compound shown here: C[C@@H]1CCCN1CCCOc1ccc2c(c1)CC[C@H]1[C@H]3[C@@H]4C[C@@H]4C(=O)N[C@@]3(C)CC[C@H]21 What is its recorded pIC50?
5.30

----------
target: hERG (KCNH2) (Homo sapiens, UniProt Q12809); assay: Inhibition of human ERG expressed in CHO cells at 3 uM incubated for 7 to 10 mins by automated whole-cell patch clamp recordings relative to control; conditions: CHO cells expressing human ERG
parameter-measured: inhibition at 3 µM (%)
All answers are understood in %, so give the number only.

Dear colleague, I am looking for the recorded inhibition at 3 µM of the following compound: CC(=O)N[C@]12CCC(=O)N[C@@]1(C)CC[C@@H]1c3ccc(OCCCN4CCC[C@H]4C)cc3CC[C@H]12
8
